# experiment: modulators of CIT2-GFP expression in yeast, confirmation, S. cerevisiae, GFP fusion, cherry picks, mother/daughter gates (AID 2274)
# experimental parameters: S. cerevisiae CIT2-GFP strain, flow cytometry, 3 h; at 10 µM; stronger effect = higher value
Measured GFP response, % of DMSO of individual entries

>  <compound>
COc1ccc(C(=O)/C(=C/O)N=Nc2ccc(F)cc2)cc1

>  <unit of measurement>
%

>  <GFP response, % of DMSO>
83.5

$$$$
>  <compound>
CCN(CC)C(=O)c1ccc2c3c(cccc13)C(=O)N(CCc1ccc(OC)c(OC)c1)C2=O

>  <unit of measurement>
%

>  <GFP response, % of DMSO>
96.4

$$$$
>  <compound>
O=C(N/N=C/c1ccc(-c2ccc(Br)cc2)o1)c1ccc2c(c1)OCO2

>  <unit of measurement>
%

>  <GFP response, % of DMSO>
102

$$$$
>  <compound>
Cc1ccc(C=C2C(Cl)=C(Cl)C(Cl)=C2Cl)cc1

>  <unit of measurement>
%

>  <GFP response, % of DMSO>
106

$$$$
>  <compound>
Clc1ccc(N=c2ssnc2Cl)cc1

>  <unit of measurement>
%

>  <GFP response, % of DMSO>
104

$$$$
>  <compound>
CN1CCc2c(sc3c2C(=O)NC(c2ccc4c(c2)OCO4)N3)C1 (stereo unspecified)

>  <unit of measurement>
%

>  <GFP response, % of DMSO>
102

$$$$
>  <compound>
CCOc1ccc(C(=O)/C=C/c2ccccc2C(F)(F)F)cc1

>  <unit of measurement>
%

>  <GFP response, % of DMSO>
104

$$$$
>  <compound>
NC(=O)c1ccccc1OCC(=O)c1ccc(Cl)cc1

>  <unit of measurement>
%

>  <GFP response, % of DMSO>
100

$$$$
>  <compound>
O=C1CC(c2ccccc2)CN1S(=O)(=O)c1ccccc1 (stereo unspecified)

>  <unit of measurement>
%

>  <GFP response, % of DMSO>
103

$$$$
>  <compound>
COc1ccc(/C(C)=N/NC(=O)c2ccc(N(C)C)cc2)cc1

>  <unit of measurement>
%

>  <GFP response, % of DMSO>
104

$$$$
>  <compound>
O=[N+]([O-])/C=C/c1c(OCc2ccccc2)ccc2ccccc12

>  <unit of measurement>
%

>  <GFP response, % of DMSO>
99.7

$$$$

====

Measured GFP response relative to DMSO of individual entries
# experiment: LAP4-GFP expression modulators in yeast, confirmation, cell-based, cherry picks, flow cytometry, mother/daughter gates (AID 2271);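 also: ratio of sample to DMSO plate mean so 100% equals DMSO level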
# experimental parameters: S. cerevisiae LAP4-GFP strain, 3 h, measured here: daughter cell gate response, at 10 µM, stronger effect = higher value, 100 means same as DMSO control
metric: GFP response relative to DMSO

>  <molecule>
CCOC(=O)Cc1csc(NC(=O)CSc2nnc(-c3ccc(C)cc3)o2)n1

>  <measured>
101%

$$$$
>  <molecule>
CCOc1cc(-c2nc3cc(C)ccn3c2NCC2CCCO2)ccc1O (stereo unspecified)

>  <measured>
91.3%

$$$$
>  <molecule>
CC1(C)CC(=O)C(C(C2=C(O)CC(C)(C)CC2=O)c2cccs2)C(=O)C1 (stereo unspecified)

>  <measured>
102%

$$$$
>  <molecule>
COc1ccc(OC)c(C2C(C(=O)Nc3nc4ccccc4s3)=C(C)NC3=C2C(=O)CCC3)c1 (stereo unspecified)

>  <measured>
86.4%

$$$$
>  <molecule>
O=c1[nH]n(Cc2ccccc2)c2ccccc12

>  <measured>
102%

$$$$
>  <molecule>
CCCn1c(=O)c(C(=O)NCc2ccc(OC)c(OC)c2)c(O)c2ccccc21

>  <measured>
102%

$$$$
>  <molecule>
COc1ccc(N=Nc2ccc(O)c3ncccc23)cc1

>  <measured>
189%

$$$$
>  <molecule>
Cc1ccc(S(=O)(=O)c2ncccc2N)cc1

>  <measured>
101%

$$$$
>  <molecule>
C/C(=N\NC(=O)c1ccc(Cl)cc1)c1cccc(NC(=O)C(C)C)c1

>  <measured>
99.2%

$$$$
>  <molecule>
N#Cc1ccccc1Cn1cc(/C=C/[N+](=O)[O-])c2ccccc21

>  <measured>
129%

$$$$
>  <molecule>
O=[N+]([O-])c1ccc(S(=O)(=O)c2ccccc2)nc1

>  <measured>
156%

$$$$
